These data points were gathered from patent US9133206B2.

Tested on: SK-N-SH human neuroblastoma cells
Test: Serum Deprivation/JC-1 Mitochondrial Membrane Potential (MMP) Assay
Format: cell-based
Conditions: Homo sapiens, single dose 3 μM, JC-1 ratio normalized to peak value for 10 μM dimebolin (n=2-4), serum deprivation, read-out: JC-1 max % (@ 3 μM)
OUTCOME MEASURE: activation at 3 µM (%)
// return numeric value only (unit: %, not printed)

These solved cases illustrate the format of a correct answer.
MOLECULE	OBSERVED VALUE
O=C(CCN1CCCC1)N1Cc2ccccc2N2CCN(Cc3ccccc3)CC2C1 (centres unmarked) [Example 91]	78
CCC(=O)N1Cc2ccccc2N2CCN(Cc3ccccc3)CC2C1 (centres unmarked) [Example 106]	81
CCCCN1Cc2ccccc2N2CCN(Cc3ccccc3)CC2C1 (centres unmarked) [Example 129]	40
CC1CC1C(=O)N1Cc2ccccc2N2CCN(Cc3ccccc3)CC2C1 (centres unmarked) [Example 116]	198
O=C(c1ccno1)N1Cc2ccccc2N2CCN(Cc3ccccc3)CC2C1 (centres unmarked) [Example 90]	114
Cc1ccsc1CN1Cc2ccccc2N2CCN(Cc3ccccc3)CC2C1 (centres unmarked) [Example 142]	13
O=C1C2CNCCN2c2ccccc2CN1CC1CC1 (centres unmarked) [Example 172]	0

// activation at 3 µM value for CN1CCN(CC(=O)N2Cc3ccccc3N3CCN(Cc4ccccc4)CC3C2)CC1 (centres unmarked) [Example 103] : 42

---

Test system: SK-N-SH human neuroblastoma cells
Experiment: Serum Deprivation/JC-1 Mitochondrial Membrane Potential (MMP) Assay
Type: cell-based
Conditions: Homo sapiens, SK-N-SH, 18 h, serum deprivation ~18 hours, JC-1 ratio normalized to peak value for 10 μM dimebolin, single curve fit to mean data of n=2-3
OUTCOME MEASURE: pEC50
pEC50 here: minus log base 10 of the concentration, concentration in moles per litre.

MOLECULE	pEC50
CN1CCC2CN(Cc3ccccc3)CCN2c2ccccc21 (stereo not drawn)	4.98

// pEC50 value for Cc1ccccc1CN1Cc2ccccc2N2CCN(Cc3ccccc3)CC2C1 (stereo not drawn) : 5.49

// pEC50 value for c1ccc(CN2CCN3c4ccccc4CN(c4ncccn4)CC3C2)cc1 (stereo not drawn) : 5.59

// pEC50 value for O=C(NCC(=O)N1Cc2ccccc2N2CCN(Cc3ccccc3)CC2C1)c1ccco1 (stereo not drawn) : 5.50

// pEC50 value for O=C(CC1CC1)N1Cc2ccccc2N2CCN(Cc3ccccc3)CC2C1 (stereo not drawn) : 5.61

// pEC50 value for O=C(N1CCOCC1)N1Cc2ccccc2N2CCN(c3ncccn3)CC2C1 (stereo not drawn) : 4.92

// pEC50 value for O=C1CC2CN(Cc3ccccc3)CCN2c2ncccc2N1 (stereo not drawn) : 5.05

// pEC50 value for O=C(c1cncs1)N1Cc2ccccc2N2CCN(Cc3ccccc3)CC2C1 (stereo not drawn) : 5.74

// pEC50 value for c1ccc(CN2CCN3c4ccccc4CN(Cc4cccc5ccccc45)CC3C2)cc1 (stereo not drawn) : 5.74

// pEC50 value for O=C(NCC1CC1)N1Cc2ccccc2N2CCN(Cc3ccccc3)CC2C1 (stereo not drawn) : 6.19

// pEC50 value for O=C(Cc1ccccc1)N1Cc2ccccc2N2CCN(Cc3ccccc3)CC2C1 (stereo not drawn) : 5.62

// pEC50 value for c1ccc(CN2CCN3c4ccccc4CN(Cc4ccccn4)CC3C2)cc1 (stereo not drawn) : 5.31

// pEC50 value for Brc1ccc(CN2CCC3CN(Cc4ccccc4)CCN3c3ccccc32)cc1 (stereo not drawn) : 5.56

// pEC50 value for O=C(c1ccn[nH]1)N1Cc2ccccc2N2CCN(Cc3ccccc3)CC2C1 (stereo not drawn) : 5.50

// pEC50 value for O=C(C1CC1)N1CCC2CNCCN2c2ncccc21 (stereo not drawn) : 4.88
